- Test system: SNB-75 CNS
- test method notes: NCI-60 one-dose screen, 48 h (100 = growth as untreated, 0 = no growth, -100 = all killed)
- measurement context: 10 µM unless noted
This is part of a sample that, as a whole, favours compounds with a hit. Of some 83,000 tested, about 20% had one in any assay. The source made the active and inactive calls. Rule for the calls: active = growth percent below 10; inactive = the rest.
experimental endpoint: growth

Worked set:
CCN1CCN(C(=O)[C@]23CC[C@@H](C)[C@H](C)[C@H]2C2=CC[C@@H]4[C@@]5(C)C/C(=C/c6cccc(OC)c6OC)C(=O)C(C)(C)[C@@H]5CC[C@@]4(C)[C@]2(C)CC3)CC1 : 35.6% (inactive)
C#Cc1cccc(NC(=O)C2CCCN(C(=O)CCl)C2)c1 (stereo not drawn) : 91.9% [8.25 µM] (inactive)

Request: Which growth value is on record for "CC(=O)O[C@H]1CC[C@@]2(C)C(=CC[C@@H]3[C@@H]2CC[C@]2(C)C(=O)N(O)C(=O)C[C@@H]32)C1" ?
Response: 75.8% (inactive)

----------
# growth annotations
- Test system: MDA-MB-231 breast
- test method notes: NCI-60 one-dose screen, 48 h (100 = growth as untreated, 0 = no growth, -100 = all killed)
- measurement context: 10 µM unless noted
About 83,000 compounds went through this panel and 20% of them were active in at least one assay; those are over-represented in the sample as a whole.
I only need the number, in %, no unit after it.

Reference set (3 entries):
C[C@H]1[C@@H]2[C@H]3CC[C@@H]4[C@@]5(C)Cc6c([nH]c7ccccc67)C(C)(C)[C@@H]5CC[C@@]4(C)[C@]3(C)CC[C@]23CO[C@]1(C)[C@@H](C(=O)/C=C/c1ccccn1)C3 : 85
C[C@@H](Oc1ccc(C(=O)NS(=O)(=O)C(C)(C)C)cc1C(F)(F)F)c1ccc(Oc2ccccc2)cn1 : 68.9
Nc1ccc(Br)cn1 : 99.3

Request: Which growth reading was recorded for the compound "N=C(N)c1ccc(-c2ccc(-c3cc(F)cc(F)c3)o2)nc1" ?
Response: 78.3

Request: Give its growth value. Item: Nc1c2c(nc3ccc(Cl)cc13)CC(c1ccccc1)CC2=O (stereo not given)
Response: 66.8

----------
Catalogue of growth readings, one per entry.
- Test system: SNB-19 CNS
- test method notes: NCI-60 one-dose screen, 48 h (100 = growth as untreated, 0 = no growth, -100 = all killed)
- measurement context: 10 µM unless noted
About 83,000 compounds went through this panel and 20% of them were active in at least one assay; those are over-represented in the sample as a whole. Active and inactive are the calls of the source. The calls were made as follows: active = growth percent below 10; inactive = the rest.

Brc1cnc2[nH]cc(-c3nnc(-c4ccccc4)o3)c2c1 : 79.5% (inactive)

Request: # lookup: growth of "C=C(C)[C@@H]1CC[C@]2(C(=O)N3CCN(C)CC3)CC[C@]3(C)[C@H](CC[C@@H]4[C@@]5(C)C/C(=C/c6ccc(C(F)(F)F)cc6)C(=O)C(C)(C)[C@@H]5CC[C@]43C)[C@@H]12"
Response: 97.3% (inactive)

Request: May I ask what growth has been recorded for "COc1cc(-c2cc3ncccc3c3nc(OCCN(C)C)c4cccnc4c23)cc(OC)c1OC" ?
Response: 15% (inactive)

Request: Which growth reading was recorded for the molecule "CC(=O)OCCCCCCn1c2ccccc2c2c3c(c4c5ccccc5n(C)c4c21)C(=O)N(O)C3=O" ?
Response: 77.5% (inactive)

----------
Measured growth of individual entries
- Tested on: 786-0 renal
- test method notes: NCI-60 one-dose screen, 48 h (100 = growth as untreated, 0 = no growth, -100 = all killed)
- measurement context: 10 µM unless noted
Compounds without any hit were thinned out: in the full panel of roughly 83,000, 20% have a hit.
Return type: number; implicit unit %.

Consider the worked cases shown below.
N#C/C(=C\c1ccc(-c2ccc(Cl)cc2)o1)c1nc(-c2ccco2)cs1 : 104
COc1ccc(-c2cc(-c3cccs3)n(N=O)c(=O)c2C#N)cc1 : 93.5
COc1ccc(-c2cc(/C=C/C(=O)c3ccc(OC)c(OC)c3)[nH]n2)cc1 : 13

Request: Recall the recorded growth for "O=C(CCCCCn1c2ccccc2c2c3c(c4c5ccccc5[nH]c4c21)C(=O)N(O)C3=O)N1CCOCC1" with 786-0 renal and state it.
Response: 80.3

Request: Please provide the recorded growth for "C/C(=C(/c1ccccc1)c1ccc(N2C(=O)c3cccc4c(NCc5ccccc5)ccc(c34)C2=O)cc1)c1ccccc1" , tested on 786-0 renal.
Response: 103

Request: Observed growth on 786-0 renal for "COc1ccc(C(=O)/C=C/c2cc(-c3cc(OC)c(OC)c(OC)c3)n[nH]2)cc1OC" , please.
Response: -34.7

Request: Param readout= growth; system= 786-0 renal; entry= "O=S(=O)(NCCNc1cc(-c2cn(-c3ccccc3)nc2-c2cccc(O)c2)ccn1)c1ccc(C(F)(F)F)cc1" ; returns value.
Response: 35.8

Request: # value lookup — system 786-0 renal, readout growth, item "Cc1cc2nc3c4cc(Cl)ccc4n(CCN(C)C)c3nc2cc1C"
Response: 14.3

Request: Form field: growth recorded for "N#Cc1cnc2cc(OC[C@@H](O)CO)c(NC(=O)C3CCCC3)cc2c1Nc1ccc(OCc2cccc(F)c2)c(Cl)c1" with 786-0 renal (enter value)
Response: 43.6

----------
- Tested on: SN12C renal
- test method notes: NCI-60 one-dose screen, 48 h (100 = growth as untreated, 0 = no growth, -100 = all killed)
- measurement context: 10 µM unless noted
This is part of a sample that, as a whole, favours compounds with a hit. Of some 83,000 tested, about 20% had one in any assay.
Dear colleague, classification is by growth, with ranges listed here: class A (below 50%), class B (50% to below 60%), class C (60% or more)

Solved entries:
COc1ccc(C2C(C#N)=C(N)Oc3c2sc2c(F)cccc32)cc1 (stereo unspecified) : class A
CC1(C)CC[C@]2(C(=O)Nc3ccccn3)CC[C@]3(C)C(=CC[C@@H]4[C@@]5(C)C/C(=C/c6ccncc6)C(=O)C(C)(C)[C@@H]5CC[C@]43C)[C@@H]2C1 : class A
O=[N+]([O-])c1ccc(N/N=C(\C(=N/Nc2ccc([N+](=O)[O-])cc2[N+](=O)[O-])c2ccccc2)c2ccccc2)c([N+](=O)[O-])c1 : class C
COc1ccc2c(c1)c1nc3cc(C)c(C)cc3nc1n2CCN(C)C : class A
C=C(C)[C@@H]1CC[C@]2(C(=O)N3CCCNCC3)CC[C@]3(C)[C@H](CC[C@@H]4[C@@]5(C)CCC(=O)C(C)(C)[C@@H]5CC[C@]43C)[C@@H]12 : class C

Request: Note: place this compound into its band. Item: "O=c1[nH]c2c3ccncc3cc(-c3cccc(Cl)c3)c2c2cnccc12"
Response: class B

Request: Which category fits this record: CC(=O)O[C@H]1CC[C@@]2(C)[C@@H](CC[C@@H]3[C@@H]2CC(=O)[C@@]2(C)[C@H]3C[C@@H](C3CCCC3=O)[C@@H]2C(C)=O)C1 (stereo partly specified)
Response: class C

----------
- Test system: RPMI-8226 leukemia
- test method notes: NCI-60 one-dose screen, 48 h
- measurement context: 10 µM unless noted
Compounds without any hit were thinned out: in the full panel of roughly 83,000, 20% have a hit. Active and inactive are the calls of the source. How the source made its calls: active means growth percent below 10; inactive means the rest.
The reply should be one of these categories: active, inactive

Examples with answers:
CC(=O)O[C@H]1CC[C@@]2(C)[C@@H](CC[C@@H]3[C@@H]2CC(=O)[C@@]2(C)[C@H]3C[C@@H](C3CCCC3=O)[C@@H]2C(C)=O)C1 (some centres not stated) : inactive
N#Cc1c(-c2ccc(O)cc2)c2c(N)nn(-c3ccccc3)c2[nH]c1=O : inactive

Request: Entry "N#C/C(=C\c1ccc(-c2ccc(Br)cc2)o1)c1nc(-c2ccco2)cs1" : call = ?
Response: inactive

Request: Field: outcome | Entry: "Nc1ccccc1NC(=O)c1ccc(CN2CCC/C(=C\c3ccccn3)C2=O)cc1"
Response: inactive

Request: Answer briefly: the call reported for "COc1cnc2c(c1)C(=O)c1c-2n(CCCN2CCN(CCO)CC2)c(=O)c2cc([N+](=O)[O-])ccc12" in this assay.
Response: inactive

----------
- System: SK-MEL-2 melanoma
- test method notes: NCI-60 one-dose screen, 48 h (100 = growth as untreated, 0 = no growth, -100 = all killed)
- measurement context: 10 µM unless noted
- Experimental: Growth inhibition of the SK-MEL-2 human tumor cell line is measured as a screen for anti-cancer activity. Cells are grown in 96 well plates and exposed to the test compound for 48 hours. Compounds are tested at a single concentration, which is 10^-5 M for most compounds. The reported endpoint is percent growth (GI% or GIPRCNT), where numbers from 0 - 100% represent growth inhibition, and numbers from -100% - 0 represent cell death. For example, a value of 40 represents 60% growth inhibition. […]
The panel holds about 83,000 compounds, 20% with a hit somewhere; the sample as a whole holds those more often.
Checkbox rule: growth lower than 60% = 1; growth not lower than 60% = 0.

Some solved cases for reference:
Cc1cc(C)c(NC(=O)c2sc3nc4c(cc3c2N)CCCC4)c(C)c1 : 1
CCOc1ccc(NC(=O)c2ccoc2COc2ccccc2)cc1 : 0
N#C/C(=C\c1ccc(-c2ccc(Cl)cc2)o1)c1nc(-c2ccco2)cs1 : 0
Nc1nc(N)c2nc3c(nc2n1)CCCCCCCCCC3 : 0
O=C(O)c1cccc2c1C(=O)N(c1ccc3c(c1)Cc1ccccc1-3)C2=O : 0

Request: Quick check: does Cc1ccc(-c2nc3ccc(Cl)cc3c(=O)n2N2C(=O)CSC2c2ccccc2Cl)cc1 (stereo not given) have growth under 60%?
Response: 0

Request: Please let me know if "CN(C)c1cccc2[nH]c(-c3[nH]ncc3Nc3ccnc(N)n3)nc12" shows growth below 60%.
Response: 1

Request: # TODO verify growth < 60% strictly for this compound: "Fc1ccc(Nc2ccc3c(OCCCN4CCOCC4)cccc3n2)cc1F"
Response: 0

Request: Hi there! Is growth for "C[Si](C)(C)Cc1ccccc1" below 60%, do you know?
Response: 0

Request: Dear colleague, could you confirm whether growth of "COc1ccc(-c2n[nH]nc2-c2cc3ccccc3s2)cc1O" falls below 60%? Thanks.
Response: 1

Request: I wonder whether "Nc1ccc(Cl)cn1" has growth below 60%. Can you tell?
Response: 0

Request: Dear colleague, could you confirm whether growth of "COc1cc2c(cc1OC)C(=O)/C(=C/c1cc(-c3ccc4c(c3)OCO4)n[nH]1)C2" falls below 60%? Thanks.
Response: 0

Request: Is it true that growth reported for "COc1cc2ncnc(Nc3ccc(OCc4cccc(F)c4)c(Cl)c3)c2cc1NC(=O)C1CCCC1" is less than 60%?
Response: 0

Request: Quick check: does "c1cc(N2CCCC2)c2nc(-c3[nH]ncc3Nc3ncnc4[nH]ccc34)[nH]c2c1" have growth under 60%?
Response: 1

Request: Field: below-cutoff. Rule: recorded growth strictly less than 60%. Subject: "Cc1cccc(C)c1NCc1nc(-c2ccccc2)n[nH]1"
Response: 0
